Cited source: paper PMC3245936

Target: T1, SpPot1 (Schizosaccharomyces pombe, UniProt O13988 1-555)
T1 sequence: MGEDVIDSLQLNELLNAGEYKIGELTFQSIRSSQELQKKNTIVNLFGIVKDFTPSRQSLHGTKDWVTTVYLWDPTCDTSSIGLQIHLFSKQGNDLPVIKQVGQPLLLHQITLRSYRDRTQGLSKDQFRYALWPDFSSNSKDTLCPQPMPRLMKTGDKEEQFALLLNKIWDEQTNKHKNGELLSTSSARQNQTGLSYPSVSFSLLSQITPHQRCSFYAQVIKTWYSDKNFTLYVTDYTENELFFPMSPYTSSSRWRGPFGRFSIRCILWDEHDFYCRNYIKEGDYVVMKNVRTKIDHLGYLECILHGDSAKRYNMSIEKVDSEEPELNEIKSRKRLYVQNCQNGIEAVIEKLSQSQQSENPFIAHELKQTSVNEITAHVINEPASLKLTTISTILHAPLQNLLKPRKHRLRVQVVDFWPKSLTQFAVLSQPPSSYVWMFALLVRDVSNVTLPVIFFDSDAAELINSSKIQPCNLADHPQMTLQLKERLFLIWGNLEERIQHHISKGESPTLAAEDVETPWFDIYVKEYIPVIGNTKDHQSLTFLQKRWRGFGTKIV
Assay: filter binding
Listed below: Kd values for each entry.
Enter your answer as a number in nM; do not include the unit.

{"columns": ["binder", "Kd (nM)"],
 "data": [
  ["GGTTACGGTTAC (ssDNA) [d12]", 5]
]}

Consider the additional binder presented here.
Data request: What measured Kd goes with GGTTACAGGTTAC (ssDNA) [d12dA] ?
Data returned: 4.3
